- system: human 5-HT2C receptor (Homo sapiens, UniProt P28335)
- Construct: expressed in transfected cells; host or cells: CHO cells
- Sequence (P28335 33-458): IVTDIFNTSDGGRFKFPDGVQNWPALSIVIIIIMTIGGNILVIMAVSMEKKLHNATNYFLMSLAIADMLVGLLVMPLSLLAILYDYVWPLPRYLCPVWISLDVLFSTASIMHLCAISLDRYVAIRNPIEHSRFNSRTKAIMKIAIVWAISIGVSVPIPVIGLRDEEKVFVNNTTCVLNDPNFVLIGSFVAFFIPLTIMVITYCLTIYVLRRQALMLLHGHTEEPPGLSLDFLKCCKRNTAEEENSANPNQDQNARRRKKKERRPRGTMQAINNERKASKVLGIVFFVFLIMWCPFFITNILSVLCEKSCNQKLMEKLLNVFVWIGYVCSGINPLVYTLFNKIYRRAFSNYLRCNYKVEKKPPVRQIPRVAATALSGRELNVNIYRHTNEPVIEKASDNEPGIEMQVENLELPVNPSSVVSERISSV
- procedure summary: Stimulation of [3H] Inositol Monophosphate Production by 5-HT2C Agonists (transfected CHO cells)
- Format: cell-based
- measurement setup: read-out: Stimulation of IP3 (EC50)
readout type: EC50

Entry c1cc2c3c(c1)c1c(n3CCNC2)CCCCC1 [Example 1] : reported EC50 = ?
500 nM

Data provenance is patent US7271164B2.
